The measurements presented in this section are drawn from patent US20250320278A1.

targetOrTestSystem: T1, SARS-CoV-2 N protein oligomerization domain (SARS-CoV-2, UniProt P0DTC9 247-364)
T1 construct: also called N olig. domain; OD
measurementProtocol: Octet, KD (nM) heat map
measure: binding result

| binder | reported |
| --- | --- |
| NP3-F10 (antibody, V domains shown) VH: EVQLQQSGAELVEPGAPVKLSCKAFGYTFTSYWMNWVKQRPGRGLEWIGRIDPSDSETHYNQNFKDKAALTVDRSSSTAYIHLSSLTSEDSAVYYCAREVTTATKGVFSWLAYWGQGTLVTVSA VL: DIQMTQTTSSLSASLGDRVTISCSASQDISDYLNWYQQKPDGTIKLLIYYTSSLHSGAPSRFSGSGSGTDYSLTISNLEPEDIATYYCQQYSKLPWTFGGGTKLELK | no binding |
| NP3-G6 (antibody, V domains shown) VH: EVQLVESGGGLVKPGGSLKLSCAASGFTFSDYYMSWVRQTPEKRLEWVATISDGGSYTYYPDSVKGRFTISRDNAKNNLYLHMSSLKSEDTAMYYCARGSTYGNPLDYWGQGTSVTVSS VL: DIQMTQSPASLSASLGDRVTINCSASQGISNYLNWYQQKPDGTVKLLIYFTSSLHSGFPSRFSGSGSGTDFSLTISNLEPEDIATYYCQQYSKLPFTFGSGTKLEIK | no binding |
